system under test: T1, human collagen type I, acid soluble, extracted from placenta (Sigma C7774) (human, UniProt P02452 162-1218; P08123 80-1119)
T1 construct: tissue extract, gelled and dried in wells; also called dried human collagen; h-Collagen
T1 sequence (P02452 162-1218 limits assumed, chain 1 of 2): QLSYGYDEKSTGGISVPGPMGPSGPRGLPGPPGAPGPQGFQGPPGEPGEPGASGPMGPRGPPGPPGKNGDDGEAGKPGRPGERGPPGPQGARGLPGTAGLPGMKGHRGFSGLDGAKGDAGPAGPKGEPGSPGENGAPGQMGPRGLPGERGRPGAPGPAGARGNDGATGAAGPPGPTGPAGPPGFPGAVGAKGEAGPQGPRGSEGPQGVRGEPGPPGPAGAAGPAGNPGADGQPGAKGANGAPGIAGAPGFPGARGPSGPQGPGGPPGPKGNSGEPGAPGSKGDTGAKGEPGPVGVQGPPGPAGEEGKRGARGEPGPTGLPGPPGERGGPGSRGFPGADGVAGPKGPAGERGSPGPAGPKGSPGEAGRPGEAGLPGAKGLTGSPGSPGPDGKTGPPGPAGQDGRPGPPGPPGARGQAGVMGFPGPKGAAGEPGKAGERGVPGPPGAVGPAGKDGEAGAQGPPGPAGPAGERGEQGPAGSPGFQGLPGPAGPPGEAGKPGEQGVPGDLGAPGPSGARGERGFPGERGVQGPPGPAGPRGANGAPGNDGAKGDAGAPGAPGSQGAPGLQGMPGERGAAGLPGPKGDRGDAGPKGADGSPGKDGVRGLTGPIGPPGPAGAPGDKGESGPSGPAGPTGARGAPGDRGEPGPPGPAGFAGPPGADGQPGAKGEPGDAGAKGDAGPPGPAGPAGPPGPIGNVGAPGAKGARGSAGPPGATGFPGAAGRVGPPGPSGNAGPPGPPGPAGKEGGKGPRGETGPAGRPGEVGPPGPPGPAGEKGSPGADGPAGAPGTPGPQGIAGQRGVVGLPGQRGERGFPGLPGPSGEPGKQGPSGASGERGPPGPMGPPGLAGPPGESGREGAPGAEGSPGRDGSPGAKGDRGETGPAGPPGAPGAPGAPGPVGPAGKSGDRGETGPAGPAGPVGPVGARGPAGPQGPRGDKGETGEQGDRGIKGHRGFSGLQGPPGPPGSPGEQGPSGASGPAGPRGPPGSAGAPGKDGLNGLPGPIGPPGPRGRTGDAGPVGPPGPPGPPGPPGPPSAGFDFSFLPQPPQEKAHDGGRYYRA
T1 sequence (P08123 80-1119 limits assumed, chain 2 of 2): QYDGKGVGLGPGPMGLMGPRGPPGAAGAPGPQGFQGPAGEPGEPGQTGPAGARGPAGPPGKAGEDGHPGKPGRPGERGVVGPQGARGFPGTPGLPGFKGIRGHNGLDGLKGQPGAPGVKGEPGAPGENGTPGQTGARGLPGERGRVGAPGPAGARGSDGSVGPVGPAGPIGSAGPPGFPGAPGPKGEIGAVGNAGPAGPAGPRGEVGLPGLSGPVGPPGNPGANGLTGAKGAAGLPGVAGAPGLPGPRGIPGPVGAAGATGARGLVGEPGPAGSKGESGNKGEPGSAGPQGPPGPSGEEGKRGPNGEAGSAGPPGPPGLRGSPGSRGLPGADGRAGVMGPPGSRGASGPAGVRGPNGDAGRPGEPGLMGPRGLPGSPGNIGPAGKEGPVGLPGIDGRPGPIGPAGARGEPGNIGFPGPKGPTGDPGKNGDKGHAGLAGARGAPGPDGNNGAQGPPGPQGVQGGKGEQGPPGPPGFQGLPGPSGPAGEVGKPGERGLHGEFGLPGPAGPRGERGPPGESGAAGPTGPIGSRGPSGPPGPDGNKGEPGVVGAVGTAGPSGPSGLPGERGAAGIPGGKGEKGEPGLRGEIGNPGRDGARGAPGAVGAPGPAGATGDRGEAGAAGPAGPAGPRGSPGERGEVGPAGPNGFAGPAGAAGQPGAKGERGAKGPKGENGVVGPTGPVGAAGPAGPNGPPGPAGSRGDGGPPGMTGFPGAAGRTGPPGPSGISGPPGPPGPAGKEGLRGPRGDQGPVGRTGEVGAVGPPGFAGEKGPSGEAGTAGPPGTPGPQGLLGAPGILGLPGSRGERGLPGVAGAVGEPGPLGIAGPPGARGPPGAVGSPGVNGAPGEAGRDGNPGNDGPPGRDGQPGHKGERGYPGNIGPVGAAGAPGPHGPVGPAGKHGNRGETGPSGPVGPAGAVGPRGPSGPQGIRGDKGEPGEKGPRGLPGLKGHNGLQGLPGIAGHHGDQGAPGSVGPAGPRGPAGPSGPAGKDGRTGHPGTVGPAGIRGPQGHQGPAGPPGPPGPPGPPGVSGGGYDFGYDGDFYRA
assay overview: dried collagen assay
Bridge positions count the residues as written; N and C are the ends. Square brackets hold non-standard residues; d marks the D form. Primed or numbered codes have the meaning given here. Side chains are listed from the residue outwards. Ends that are not written are not given here. Gd^T(3) = GdDTPA attached via thiourea; 1Nal = N[C@@H](Cc1cccc2ccccc12)C(=O)O; Gd^T = not defined here; Gd^T″ = GdDTPA-thiourea
Recorded measurements of % bound, one per entry
Report as a plain number; the unit % is understood.

For orientation, consider the following solved cases.
{Gd^T(3)}-GK([Gly-Gd^T(3)])WHCYTYFPHH[1Nal]CLYG (disulfide 5-14; not fully specified (C-terminus)) [Compound ID 992]
75
{Gd^T″}-GK([Gly-Gd^T″])WHCTTLFPHHYCLYG (disulfide 5-14 (inferred)) [Compound ID 930]
31
{Gd^T}-DWTCS[dL]DEYTWHCNYE (disulfide 4-13 (inferred); not fully specified (C-terminus); reading uncertain) [Compound ID 847]
16

Now look at this entry.
QUERY: Please give the measured % bound for this binder: {Gd^T″}-GK([Gly-Gd^T″])WHCTTYFPHHYCLYYK(Gd^T″) (disulfide 5-14 (inferred); not fully specified (C-terminus)) [Compound ID 976]
RESULT: 62

// provenance: patent US20080044360A1
